experiment: Inhibition of binding of biotinylated chicken galectin-8S to surface immobilized asialofetuin by solid phase assay relative to free lactose; parameters: species or system Gallus gallus
pIC50 values for the compounds below.
pIC50 is a log-scale quantity: -log10 of the concentration expressed in molar.

Consider the worked cases shown below.
INSERT INTO assay_data (smiles_string, observed_measurement) VALUES
  ('O=C(/C=C/C(=O)N[C@@H]1O[C@H](CO)[C@@H](O[C@@H]2O[C@H](CO)[C@H](O)[C@H](O)[C@H]2O)[C@H](O)[C@H]1O)N[C@@H]1O[C@H](CO)[C@@H](O[C@@H]2O[C@H](CO)[C@H](O)[C@H](O)[C@H]2O)[C@H](O)[C@H]1O', 3.15),
  ('C=CC[C@@H]1O[C@@H](C(=O)NCc2ccc(CNC(=O)[C@H]3O[C@H](CC=C)[C@H](OCc4ccccc4)[C@@H](OCc4ccccc4)[C@@H]3OCc3cn([C@@H]4O[C@H](CO)[C@@H](O[C@@H]5O[C@H](CO)[C@H](O)[C@H](O)[C@H]5O)[C@H](O)[C@H]4O)nn3)cc2)[C@H](OCc2cn([C@@H]3O[C@H](CO)[C@@H](O[C@@H]4O[C@H](CO)[C@H](O)[C@H](O)[C@H]4O)[C@H](O)[C@H]3O)nn2)[C@@H](OCc2ccccc2)[C@@H]1OCc1ccccc1', 3.22),
  ('OC[C@H]1O[C@@H](O[C@H]2[C@H](O)[C@@H](O)[C@H](n3cc(-c4ccc(-c5cn([C@@H]6O[C@H](CO)[C@@H](O[C@@H]7O[C@H](CO)[C@H](O)[C@H](O)[C@H]7O)[C@H](O)[C@H]6O)nn5)cc4)nn3)O[C@@H]2CO)[C@H](O)[C@@H](O)[C@H]1O', 2.59);

Lookup: // returns reported pIC50 for input O=C1NCc2ccc(cc2)CNC(=O)[C@@H]2O[C@@H](C/C=C/C[C@H]3O[C@H]1[C@@H](OCc1cn([C@@H]4O[C@H](CO)[C@@H](O[C@@H]5O[C@H](CO)[C@H](O)[C@H](O)[C@H]5O)[C@H](O)[C@H]4O)nn1)[C@H](OCc1ccccc1)[C@H]3OCc1ccccc1)[C@@H](OCc1ccccc1)[C@H](OCc1ccccc1)[C@H]2OCc1cn([C@@H]2O[C@H](CO)[C@@H](O[C@@H]3O[C@H](CO)[C@H](O)[C@H](O)[C@H]3O)[C@H](O)[C@H]2O)nn1
Found: 2.35

Data credit: ChEMBL document CHEMBL2202999
